Protocol text: chemical genetic growth profiling, strain panel (AID 1159580);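 also: tested at 20 µM; growth read once vehicle control cultures reached saturation at 30 °C; 1 = growth at the plate median or of vehicle wells; lower values mean less growth of the strain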
Assay conditions: S. cerevisiae deletion strains, growth OD, locus YOR061W, strain CKA2, active compounds read low
Hit rate of the full screen: of about 5,500 compounds, about 2,000 (36%) were called active. About 18% were inconclusive and are not listed. Some of the results follow.
Exercise: for every item that follows, state its recorded normalized growth.

INSERT INTO assay_data (compound, result_value) VALUES
  ('Cc1ccc(/C(=C\CN2CCCC2)c2ccccn2)cc1', '1.01 (inactive)');

Dear colleague, could you please provide normalized growth for the compounds listed below?
1. C=CC(C1=CC(=O)C(OC)=CC1=O)c1ccccc1 (configuration not stated)
2. CC(=O)Nc1ccc([N+](=O)[O-])cc1[N+](=O)[O-]
3. O=C(O)/C=C/C=C/c1ccccc1
4. Nc1ncn([C@@H]2O[C@H](CO)[C@@H](O)[C@H]2O)c(=O)n1
5. C=C[C@@H](C1=CC(=O)C(OC)=C(OC)C1=O)c1ccccc1
6. O=[N+]([O-])/C=C/c1ccc(F)cc1
7. CCOc1ccc(/C=C(\C)[N+](=O)[O-])cc1OC

0.956 (inactive)
0.587 (active)
0.973 (inactive)
1.02 (inactive)
0.829 (active)
0.0873 (active)
0.571 (active)
